Data origin: patent US20260242735A1

Quick list: Mean % WT Binding per entry.
test target: human CD33 I147A (human, UniProt P20138 18-364)
Sequence (P20138 18-364 I147A limits assumed): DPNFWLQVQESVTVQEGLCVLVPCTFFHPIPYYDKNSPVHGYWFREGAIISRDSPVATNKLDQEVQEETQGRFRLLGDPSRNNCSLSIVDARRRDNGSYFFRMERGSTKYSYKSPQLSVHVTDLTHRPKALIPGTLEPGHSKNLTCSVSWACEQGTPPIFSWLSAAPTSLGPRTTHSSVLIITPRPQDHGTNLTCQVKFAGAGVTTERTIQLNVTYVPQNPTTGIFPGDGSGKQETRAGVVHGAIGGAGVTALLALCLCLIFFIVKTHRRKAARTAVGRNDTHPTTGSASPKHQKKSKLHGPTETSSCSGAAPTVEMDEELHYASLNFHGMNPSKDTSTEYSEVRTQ
test method notes: flow cytometry on HEK293-T, alanine scan
property: Mean % WT Binding (% WT binding)

binder	uom	observed
Refmab #3 (antibody, V domains shown, The alanine scan used IgG or Fab) VH: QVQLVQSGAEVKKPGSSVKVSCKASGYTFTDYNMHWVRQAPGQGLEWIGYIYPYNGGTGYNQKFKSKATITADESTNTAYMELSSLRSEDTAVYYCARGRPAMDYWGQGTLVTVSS VL: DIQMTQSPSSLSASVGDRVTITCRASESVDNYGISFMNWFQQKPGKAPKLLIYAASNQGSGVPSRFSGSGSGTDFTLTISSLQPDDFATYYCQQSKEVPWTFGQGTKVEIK	% WT binding	67.1
Refmab #4 (antibody, V domains shown, The alanine scan used IgG or Fab) VH: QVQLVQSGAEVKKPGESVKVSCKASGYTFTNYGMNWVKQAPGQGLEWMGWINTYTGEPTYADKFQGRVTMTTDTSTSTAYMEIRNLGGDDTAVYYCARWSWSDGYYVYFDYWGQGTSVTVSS VL: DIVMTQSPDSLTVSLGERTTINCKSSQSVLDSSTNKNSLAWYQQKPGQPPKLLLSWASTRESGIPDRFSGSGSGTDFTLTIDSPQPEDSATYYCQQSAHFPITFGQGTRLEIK	% WT binding	58.7
Refmab #2 (antibody, V domains shown, The alanine scan used IgG or Fab) VH: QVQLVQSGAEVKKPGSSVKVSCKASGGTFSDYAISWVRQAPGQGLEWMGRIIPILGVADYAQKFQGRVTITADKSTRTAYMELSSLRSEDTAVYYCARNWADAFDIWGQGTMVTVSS VL: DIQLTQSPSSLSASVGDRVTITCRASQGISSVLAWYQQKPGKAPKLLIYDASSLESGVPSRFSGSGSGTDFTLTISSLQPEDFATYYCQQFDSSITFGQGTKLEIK	% WT binding	92.2
Refmab #1 (antibody, V domains shown, The alanine scan used IgG or Fab; also called hP67.6) VH: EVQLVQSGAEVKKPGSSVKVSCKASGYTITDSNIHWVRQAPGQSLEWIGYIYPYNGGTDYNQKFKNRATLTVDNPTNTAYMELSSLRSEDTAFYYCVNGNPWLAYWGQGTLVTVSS VL: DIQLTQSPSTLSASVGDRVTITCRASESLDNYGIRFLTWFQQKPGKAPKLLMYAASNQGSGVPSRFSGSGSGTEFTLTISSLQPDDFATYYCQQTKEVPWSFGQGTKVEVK	% WT binding	71.6
